System: S. aureus E33
assay_overview: MIC, liquid dilution test in minimal medium (96-well microtitre plate)
Format: cell-based
experimental_context: Staphylococcus aureus, E33, read-out: MIC S. aureus E33
Where a name gives a salt, the structure may show the parent alone.
Entries annotated with measured MIC
Numbers only; they are read as µM.

Take a look at these entries with their results.
| molecule | readout_units | MIC |
| --- | --- | --- |
| CN1C(=O)[C@H](CCCN)NC(=O)[C@@H](N)Cc2cc(ccc2O)-c2ccc(O)c(c2)C[C@H]1C(=O)NCCN [Example 3, trihydrochloride] | µM | 1.6 |
| NCCC[C@@H]1NC(=O)[C@@H](N)Cc2cc(ccc2O)-c2ccc(O)c(c2)C[C@@H](C(=O)NCCN)NC1=O [Example 6] | µM | 3.1 |

Exam item: MIC for CN1C(=O)[C@H](C[C@@H](O)CN)NC(=O)[C@@H](N)Cc2cc(ccc2O)-c2ccc(O)c(c2)C[C@H]1C(=O)NCCN [Example 1, trihydrochloride] ?
Marked response: 3.1

Exam item: MIC for CN1C(=O)[C@H](C[C@@H](O)CN)NC(=O)[C@@H](N)Cc2cc(ccc2O)-c2ccc(O)c(c2)C[C@H]1C(=O)NC1CCNCC1 [Example 2, trihydrochloride] ?
Marked response: 1.6
